These measurements were taken from patent US7595401B2.

test system: purified human Hsp90; test: Binding Assay: fluorescence polarization with BODIPY-labeled geldanamycin; conditions: 5 μM compound, BODIPY-GM 10 nM, Hsp90 30 nM
quantity name: % Inhibition at 5 μM Compound Concentration (%)

# smiles representation, reported
data = [
    ("COc1ccc(OC)c(Sc2nc3c(N)ncn(CCc4ccc(F)cc4Cl)c-3n2)c1", 0),
    ("Nc1ncn(CCC2CCNCC2)c2nc(Sc3cc4c(cc3Br)OCO4)nc1-2", 9),
    ("CC(C)(C)OC(=O)N1CCC(=CCn2cnc(N)c3nc(Sc4cc5c(cc4Br)OCO5)nc2-3)CC1", 38),
]

###

pIC50: recorded values
target: purified human Hsp90; assay: Binding Assay: fluorescence polarization with BODIPY-labeled geldanamycin; settings: BODIPY-GM 10 nM, Hsp90 30 nM
pIC50: −log10 of the molar value.
quantity name: pIC50

# compound, subject of test, quantity name, reported
rows = [
    ("COc1ccc(OC)c(Sc2nc3c(N)ncnc3n2CCC2C(=O)NN=C2C)c1 (stereo not drawn)", "purified human Hsp90", "pIC50", "< 4.60"),
    ("Nc1ncnc2c1nc(Sc1cccc(OC(F)F)c1)n2CCc1ccccc1Cl", "purified human Hsp90", "pIC50", "< 4.60"),
    ("COc1ccc(OC)c(Sc2nc3c(N)ncnc3n2CCn2cnc3ccccc3c2=O)c1", "purified human Hsp90", "pIC50", "< 4.60"),
]

###

Readings of pIC50 for the listed compounds
molecular target: purified human Hsp90; assay: Binding Assay: fluorescence polarization with BODIPY-labeled geldanamycin; conditions: BODIPY-GM 10 nM, Hsp90 30 nM
pIC50: −log10 of the molar value.

# compound, pIC50
measured = [
    ("COc1ccc(OC)c(Sc2nc3c(N)ncnc3n2CCc2cccc(OC(F)(F)F)c2)c1", "< 5.00"),
    ("COC(=O)c1ccnc(Sc2nc3c(N)ncnc3n2CCC2CCN(C=O)CC2)c1", "< 5.30"),
    ("CC1(C)COC(CCn2c(Sc3cc4c(cc3Br)OCO4)nc3c(N)ncnc32)CN1 (centres unmarked)", "< 5.10"),
    ("COc1ccc(CCn2c(Sc3cc(OC)ccc3OC)nc3c(N)ncnc32)cc1", 5.52),
    ("C[C@H](N)C(=O)N1CCC(CCn2c(Sc3cc4c(cc3Br)OCO4)nc3c(N)ncnc32)CC1", 6.85),
    ("N#Cc1ccc(Sc2nc3c(N)ncn(CCc4ccccc4)c-3n2)cc1", "< 5.00"),
    ("COc1ccc(OC)c(Sc2nc3c(N)ncnc3n2CCN2CCN(C3CCCC3)CC2)c1", 5.26),
    ("COc1ccc(OC)c(Sc2nc3c(N)ncnc3n2CCC2CC(C)(C)NC(C)(C)C2)c1", 5.54),
    ("CC(=O)N1CCC(CCn2c(Sc3nc(C)c(CC(N)=O)s3)nc3c(N)ncnc32)CC1", "< 5.30"),
    ("COc1cc(C#N)c(Sc2nc3c(N)ncnc3n2CCC2CCN(C(C)=O)CC2)cc1OC", "< 5.30"),
    ("COc1ccc(F)cc1Sc1nc2c(N)ncnc2n1CCc1ccccc1", "< 4.60"),
    ("CC(C)(C)OC(=O)N1CCOC(CCn2c(Sc3cc4c(cc3Br)OCO4)nc3c(N)ncnc32)C1 (centres unmarked)", "< 4.60"),
    ("CC(=O)N1CCC(CCn2c(Sc3cc(F)c(F)cc3Br)nc3c(N)ncnc32)CC1", "< 5.30"),
    ("C[C@@H](C(=O)N1CCC(CCn2c(Sc3cc4c(cc3Br)OCO4)nc3c(N)ncnc32)CC1)N(C)C(=O)OC(C)(C)C", "< 5.70"),
    ("COc1ccc(OC)c(Sc2nc3c(N)ncn(CC4(c5ccc(Cl)cc5)CCC4)c-3n2)c1", "< 5.00"),
    ("COc1cc(Sc2nc3c(N)ncnc3n2CCC2CCN(C(C)=O)CC2)c(OC)cc1Cl", "< 5.30"),
    ("Nc1ncnc2c1nc(Sc1cc3c(cc1Br)OCO3)n2CCC1CCCCN1C(=O)OCc1ccccc1 (centres unmarked)", "< 5.30"),
    ("COc1ccc2sc(Sc3nc4c(N)ncnc4n3CCC3CCN(C(C)=O)CC3)nc2c1", "< 5.30"),
    ("N#Cc1ccc(Sc2nc3c(N)ncnc3n2CCc2ccccc2)cc1", "< 5.00"),
    ("Nc1ncn(CCC2CCCCC2)c2nc(Sc3cc4c(cc3Br)OCO4)nc1-2", "< 4.60"),
]
